The reader will find reported IC50, IGF1-stimulated IGFR phosphorylation, H292 cells, ELISA values listed item by item below.
target: IGF-IR on human tumour cells (H292, MCF-7, RH41) (human, UniProt P08069 31-1367); assay: cell-based or functional assay
Only the number, expressed in nM, is required.

Worked cases, IC50, IGF1-stimulated IGFR phosphorylation, H292 cells, ELISA given:
>  <BINDER>
I1-GS10-E1 pegylated, His-tagged (designed binder, 40 kDa branched PEG on the Cys of the C-terminal Cys tail) MGVSDVPRDLEVVAATPTSLLISWSARLKVARYYRITYGETGGNSPVQEFTVPKNVYTATISGLKPGVDYTITVYAVTRFRDYQPISINYRTEIDKGSGSGSGSGSGSGSGSGSGSVSDVPRDLEVVAATPTSLLISWVAGAEDYQYYRITYGETGGNSPVQEFTVPHDLVTATISGLKPGVDYTITVYAVTDMMHVEYTEHPISINYRTEIDKPCQHHHHHH

>  <MEASUREMENT>
0.9

$$$$
>  <BINDER>
I1-GS10-E1, His-tagged, non-pegylated (designed binder) MGVSDVPRDLEVVAATPTSLLISWSARLKVARYYRITYGETGGNSPVQEFTVPKNVYTATISGLKPGVDYTITVYAVTRFRDYQPISINYRTEIDKGSGSGSGSGSGSGSGSGSGSVSDVPRDLEVVAATPTSLLISWVAGAEDYQYYRITYGETGGNSPVQEFTVPHDLVTATISGLKPGVDYTITVYAVTDMMHVEYTEHPISINYRTEIDKPSQHHHHHH

>  <MEASUREMENT>
1

$$$$
>  <BINDER>
I1GS10-E3 (Pegylated) (designed binder, Cys of the C-terminal Cys tail conjugated to 40 kDa branched PEG) I/E tandem 10Fn3 chain: MGVSDVPRDLEVVAATPTSLLISWSARLKVARYYRITYGETGGNSPVQEFTVPKNVYTATISGLKPGVDYTITVYAVTRFRDYQPISINYRTEIDKGSGSGSGSGSGSGSGSGSGSVSDVPRDLEVVAATPTSLLISWLPGKLRYQYYRITYGETGGNSPVQEFTVPHDLRTATISGLKPGVDYTITVYAVTNMMHVEYSEYPISINYRTEIDKPCQHHHHHH

>  <MEASUREMENT>
2

$$$$

Okay, next one:
What IC50, IGF1-stimulated IGFR phosphorylation, H292 cells, ELISA value was documented for this binder, I1-GS10-E3, non-pegylated (designed binder) VSDVPRDLEVVAATPTSLLISWSARLKVARYYRITYGETGGNSPVQEFTVPKNVYTATISGLKPGVDYTITVYAVTRFRDYQPISINYRTEIDKGSGSGSGSGSGSGSGSGSGSVSDVPRDLEVVAATPTSLLISWLPGKLRYQYYRITYGETGGNSPVQEFTVPHDLRTATISGLKPGVDYTITVYAVTNMMHVEYSEYPISINYRTEIDKPSQ ?
19
